System: Wild type
Experiment: S. aureus survival, RN4220 and DeltatarO strains – OD600, teichoic acid synthesis inhibitors, primary screen (AID 463173)
Conditions: S. aureus RN4220 wild type/DeltatarO growth, OD600, 18 h, hits give low values, screened at 18.75 µg/mL (by protocol)
Screen size: about 52,000 compounds; about 1,700 (3.3%) were called active. Only a selection was taken, and actives are over-represented in it overall.
Would you mind telling me the reported survival of each entry?
Give bare numbers, in %.

# annotated cases, reported survival shown
Q: Tell me the measured survival of `CCn1c(SCC(=O)Nc2ccccc2C(=O)OC)nc2ccsc2c1=O` , please.
Result: 83

Q: Tell me the measured survival of CCC(C)n1c(SCC(=O)Nc2ccccc2C(=O)OC)nc2ccsc2c1=O (centres undefined) , please.
Result: -1

Q: Tell me the measured survival of `Cc1ccc(NC(=O)Cn2c(=O)ccc3cc(S(=O)(=O)N4CCCC4)ccc32)cc1C` , please.
Result: 88

We next turn to a different compound, shown below.
Q: Tell me the measured survival of `CC1CCN(S(=O)(=O)c2ccc3c(c2)oc(=O)n3CC(=O)N2CCCCC2)CC1` , please.
Result: 76

* * *

Test system: Wild type
Assay: S. aureus survival, RN4220 and DeltatarO strains – OD600, teichoic acid synthesis inhibitors, primary screen (AID 463173)
Conditions: S. aureus RN4220 wild type/DeltatarO growth, OD600, 18 h, screened at 18.75 µg/mL (by protocol)
Hit rate of the full screen: of about 52,000 compounds, about 1,700 (3.3%) were called active. Rule as the data show it: active = survival mostly below about 52% (no sharp cut-off); inactive = mostly above about 56%. What follows is part of a selection rich in actives, with near analogues and random picks from the rest.
Pick one: active, inactive

Worked set:
Q: What was the test verdict on `Cc1ccc(C)c(N2CCN(C(=O)Cn3cnc4nc5c(cc4c3=O)CCCC5)CC2)c1` ?
Result: inactive

Q: What was the test verdict on COc1cc(C2c3c(-c4c(C)cc(C)cc4O)n[nH]c3C(=O)N2Cc2ccco2)cc(OC)c1OC (stereo not given) ?
Result: inactive

***
Q: What was the test verdict on `CCN(CC)S(=O)(=O)c1ccc(NC(=O)[C@H](CSCc2ccccc2)N2Cc3ccccc3C2=O)cc1` ?
Result: inactive

Q: What was the test verdict on `COc1ccc(CCNCc2ccc3c(c2)n(C)c(=O)n3C)cc1OC` ?
Result: inactive

Q: What was the test verdict on `CCN(CC)C(=O)c1sc(NC(C)=O)c(C(=O)OC)c1C` ?
Result: inactive

* * *

Would you mind telling me the reported survival of each entry?
System: Wild type
Assay: S. aureus survival, RN4220 and DeltatarO strains – OD600, teichoic acid synthesis inhibitors, primary screen (AID 463173)
Settings: S. aureus RN4220 wild type/DeltatarO growth, OD600, 18 h, hits give low values, screened at 18.75 µg/mL (by protocol)
The whole screen tested about 52,000 compounds, of which about 1,700 (3.3%) were called active. The full list was thinned out, with actives kept by preference.
One number for each entry, in %.

Q: // fetch Wild type survival for `CCOC(=O)c1cnc2c(C)c(Cl)ccc2c1NCCc1ccc(OC)c(OC)c1`
Result: 4

Q: // fetch Wild type survival for `Cc1ccccc1Cn1c2ccccc2c2cnn(CC(=O)N3CCC(C)CC3)c(=O)c21`
Result: 12

Q: // fetch Wild type survival for `Cc1c(C(=O)Nc2ccc(F)c(Cl)c2)sc2nc3n(c(=O)c12)CCC3`
Result: 81

Q: // fetch Wild type survival for `Cc1ccc(CCNC(=O)Cn2ncc3c([nH]c4ccccc43)c2=O)cc1`
Result: 66

Q: // fetch Wild type survival for `CCOC(=O)c1cnc2c(C)c(Cl)ccc2c1Nc1ccc(C)cc1C`
Result: 140

# per-item lookup of survival; items listed below
1. CCCn1c2ccccc2c2cnn(CC(=O)N3CCN(c4ccccc4F)CC3)c(=O)c21
2. CCOC(=O)CNc1ncnc2c1nnn2C
3. CCOC(=O)c1cnc2ccc(OC)cc2c1NCCc1ccc(OC)c(OC)c1
4. CCOC(=O)c1cnc2c(C)cc(Cl)cc2c1NCCc1ccc(OC)c(OC)c1
5. Cc1ccccc1Cn1c2ccccc2c2cnn(CC(=O)NC3CCC(C)CC3)c(=O)c21 (stereo unspecified)
6. CCN1CCN(C(=O)Cn2ncc3c4ccccc4n(Cc4c(C)cc(C)cc4C)c3c2=O)CC1
7. Cc1cc(C)c(Cn2c3ccccc3c3cnn(CC(=O)N4CCCCC4)c(=O)c32)c(C)c1
8. COc1ccc(CNC(=O)Cn2ncc3c([nH]c4ccccc43)c2=O)cc1

Result:
1: -6; 2: 22; 3: 78; 4: 48; 5: 78; 6: 126; 7: 125; 8: 63

# per-item lookup of survival; items listed below
1. Cc1cc(C)c(Cn2c3ccccc3c3cnn(CC(=O)N4CCCCCC4)c(=O)c32)c(C)c1
2. CCOC(=O)c1cnc2ccc(OCC)cc2c1NCCc1ccc(OC)c(OC)c1
3. CCOC(=O)c1cnc2c(C)cc(C)cc2c1NCCc1ccc(OC)c(OC)c1

Result:
1: 1; 2: 133; 3: 75
